target: human MCH receptor expressed from the open reading frame cDNA SEQ. ID. NO. 1 in 293-AEQ17 cells (human, UniProt Q99705 1-353); assay: cell-based or functional assay
Sequence (Q99705 whole entry): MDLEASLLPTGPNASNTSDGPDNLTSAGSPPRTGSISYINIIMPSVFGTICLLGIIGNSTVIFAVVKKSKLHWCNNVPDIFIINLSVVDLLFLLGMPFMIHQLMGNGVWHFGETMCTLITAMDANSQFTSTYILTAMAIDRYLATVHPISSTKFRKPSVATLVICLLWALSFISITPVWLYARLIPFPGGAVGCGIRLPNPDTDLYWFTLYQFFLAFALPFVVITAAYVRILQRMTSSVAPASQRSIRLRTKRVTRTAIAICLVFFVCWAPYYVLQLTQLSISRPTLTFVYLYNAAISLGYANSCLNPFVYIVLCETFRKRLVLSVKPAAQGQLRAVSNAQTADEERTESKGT
Bridges are numbered along the chain shown (N, C = ends). Where no end group is shown, it is not given here.
QUANTITY_MEASURED: Activation % (%)
Lab book: enter the figure in %, no units written.

[[record]]
binder = "RCMLGRVYRPX (D-Cys^16; N-terminal acetyl, C-terminal amide, Cys-Cys disulfide as in SEQ. ID. NO. 7) [MCH analog SEQ. ID. NO. 24 (D-Cys^16)]"
quantity_measured = "Activation %"
obs_value = 76

[[record]]
binder = "XCMLGRVYRPC (D-Arg^6; N-terminal acetyl, C-terminal amide, Cys-Cys disulfide as in SEQ. ID. NO. 7, ID; NO; 7 peptide; MCH position numbering) [MCH analog SEQ. ID. NO. 15 (D-Arg^6)]"
quantity_measured = "Activation %"
obs_value = 86

[[record]]
binder = "RXMLGRVYRPC (D-Cys^7; N-terminal acetyl, C-terminal amide, Cys-Cys disulfide as in SEQ. ID. NO. 7) [MCH analog SEQ. ID. NO. 16 (D-Cys^7)]"
quantity_measured = "Activation %"
obs_value = 34

[[record]]
binder = "DFDMLRCMLGRVYRPCWQV (disulfide 7-16) [mammalian MCH (SEQ. ID. NO. 11)]"
quantity_measured = "Activation %"
obs_value = 100


Prompt: // lookup Activation % for Ac-RCMLGRVYRPC-NH2 (disulfide 2-11 (inferred), Corresponds to MCH positions 6-16; also called ID; NO; 7 MCH analog) [truncated MCH analog SEQ. ID. NO. 7: Ac-Arg-Cys-Met-Leu-Gly-Arg-Val-Tyr-Arg-Pro-Cys-amide]
Completion: 99
